Known protein stability index of a selection of variants
B1: LOC100129726 (parent)
chain: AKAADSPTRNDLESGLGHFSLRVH

- Variants of: B1
- assay.info: protein stability index of a GFP-peptide fusion (GPS, HEK-293T) (PSI 1-6); higher = more stable;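 note: lentivirally expressed fusions sorted by FACS into six bins by GFP to DsRed ratio, PSI derived from sequencing read proportions per bin multiplied by bin number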
- stated.conditions: c terminus: a fixed tail appended

sequence.variant | protein stability index
F19D | 4.6
S20Q | 3.17
E13T | 2.59
T8Y | 2.75
H24A | 2.92
H18G | 3.84
A1I | 2.48
F19L | 3.31
L12A | 3.47
A4V | 2.4
T8W | 1.98
P7F | 2.33
H24S | 3.6
A4I | 2.98
A4G | 2.86
F19Q | 4.33
L12E | 4
R9M | 3.46
A3S | 3.49
S20M | 2.87
P7D | 3.64
S14E | 3.81

# credit: the supplement of paper PMC10567573
